# study system: cIAP-1 BIR-3 (Homo sapiens, UniProt Q13490)
# Construct: "cIAP-1 BIR-3"
# Sequence (Q13490 266-343 limits assumed): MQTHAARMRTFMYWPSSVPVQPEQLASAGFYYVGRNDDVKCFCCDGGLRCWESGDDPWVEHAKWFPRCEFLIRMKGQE
# protocol text: Fluorescence polarization binding to cIAP-1 BIR-3 (competition with AbuRPF-K(5-Fam)-NH2)
# run parameters: cells marked (cIAP-1): cIAP-1 BIR-3; reported as range class
Kd values for the compounds below.

# example entries with known answers
                               input_smiles                              study_system  recorded_value
0  CCN[C@@H](C)C(=O)N[C@H](C(=O)N1CC[C@H](O)[C@H]1Cc1c[nH]c2ncccc12)[C@@H](C)OC  cIAP-1 BIR-3 (Homo sapiens, UniProt Q13490)        < 100 nM
1  CC[C@H](NC)C(=O)N[C@H](C(=O)N1CC[C@H](O)[C@H]1Cc1c(Cl)[nH]c2cc(F)ccc12)[C@@H](C)OC  cIAP-1 BIR-3 (Homo sapiens, UniProt Q13490)        < 100 nM
2  CCN[C@@H](C)C(=O)N[C@H](C(=O)N1C[C@@H](O)C[C@H]1C[C@H]1CN(C(C)=O)c2ccc(CC)cc21)C1CCCCC1  cIAP-1 BIR-3 (Homo sapiens, UniProt Q13490)        > 100 nM

Now for another entry.
For CC[C@H](NC)C(=O)N[C@H](C(=O)N1CC[C@H](OC)[C@H]1Cc1c(Cl)[nH]c2cc(F)ccc12)C(C)C on cIAP-1 BIR-3 (Homo sapiens, UniProt Q13490), measured Kd was > 100 nM

* * *

# study system: XIAP BIR-3 (Homo sapiens, UniProt P98170)
# Construct: 40 nM of the BIR3 for 15 min at RT
# Sequence (P98170 241-356 limits assumed): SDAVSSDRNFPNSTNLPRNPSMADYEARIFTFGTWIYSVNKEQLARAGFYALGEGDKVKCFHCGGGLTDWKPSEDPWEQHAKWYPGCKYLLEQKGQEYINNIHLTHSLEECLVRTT
# protocol text: Fluorescence polarization binding to XIAP BIR-3 (competition with AbuRPF-K(5-Fam)-NH2)
# run parameters: XIAP BIR-3 (default where cell does not indicate otherwise); reported as range class
measured attribute: Kd

Worked examples, 4 compounds total:
>>> print(df.to_string())
                               input_smiles  measured_attribute    recorded_value
0  CCNCC(=O)N[C@H](C(=O)N1CCC[C@H]1Cc1c[nH]c2ncccc12)[C@@H](C)OC                  Kd          > 100 nM
1  CCN[C@@H](C)C(=O)N[C@H](C(=O)N1CCC[C@H]1Cc1c[nH]c2ncccc12)[C@@H](C)OC                  Kd          < 100 nM
2  CN[C@@H](C)C(=O)N[C@H](C(=O)N1CC[C@H](C)[C@H]1Cc1c[nH]c2cc(F)ccc12)[C@@H](C)O                  Kd  1000 to 10000 nM
3  CN[C@@H](C)C(=O)N[C@H](C(=O)N1CC[C@H](O)[C@H]1Cc1cn(C)c2cc(F)ccc12)[C@@H](C)OC                  Kd          < 100 nM

Fill in: XIAP BIR-3 (Homo sapiens, UniProt P98170) Kd for CC[C@H](NC)C(=O)N[C@H](C(=O)N1CC[C@H](OC)[C@H]1Cc1c[nH]c2cc(F)ccc12)[C@@H](C)OC = > 10000 nM

CN[C@@H](C)C(=O)N[C@H](C(=O)N1C[C@@H](O)C[C@H]1Cc1c[nH]c2ncccc12)[C@@H](C)OC tested on XIAP BIR-3 (Homo sapiens, UniProt P98170) gave Kd: < 100 nM

Record CN[C@@H](C)C(=O)N[C@H](C(=O)N1CC[C@@H](O)[C@H]1Cc1c(-c2ccc(F)cc2)[nH]c2ccccc12)C(C)C / XIAP BIR-3 (Homo sapiens, UniProt P98170), Kd recorded as < 100 nM

Kd on XIAP BIR-3 (Homo sapiens, UniProt P98170) for CN[C@@H](C)C(=O)N[C@H](C(=O)N1CCC[C@H]1Cc1c[nH]c2c1ccc[n+]2[O-])C(C)(C)C is < 100 nM

With XIAP BIR-3 (Homo sapiens, UniProt P98170) as the test system, CC[C@H](NC)C(=O)N[C@H](C(=O)N1CC[C@H](OC)[C@H]1Cc1c(Cl)[nH]c2cc(F)ccc12)[C@@H](C)OC showed Kd of > 100 nM

# CN[C@@H](C)C(=O)N[C@H](C(=O)N1CC[C@H](OC)[C@H]1Cc1c[nH]c2cc(F)ccc12)C(C)(C)C with XIAP BIR-3 (Homo sapiens, UniProt P98170): Kd is > 10000 nM

// returns Kd for CC[C@H](NC)C(=O)N[C@H](C(=O)N1CC[C@H](C)[C@H]1Cc1c[nH]c2cc(F)ccc12)[C@@H](C)OC with XIAP BIR-3 (Homo sapiens, UniProt P98170); value = > 10000 nM

Reading of Kd for CC[C@H](NC)C(=O)N[C@H](C(=O)N1CC[C@H](O)[C@H]1Cc1c[nH]c2cc(F)ccc12)[C@@H](C)OC with XIAP BIR-3 (Homo sapiens, UniProt P98170): < 100 nM

Data origin: patent US20110288116A1
